Measured values drawn from patent US20200115430A1 for this set.

- measurement target: T1, human amylin 3 receptor (human, UniProt P30988 25-474; O60896 24-148)
- T1 sequence (looked up) 1: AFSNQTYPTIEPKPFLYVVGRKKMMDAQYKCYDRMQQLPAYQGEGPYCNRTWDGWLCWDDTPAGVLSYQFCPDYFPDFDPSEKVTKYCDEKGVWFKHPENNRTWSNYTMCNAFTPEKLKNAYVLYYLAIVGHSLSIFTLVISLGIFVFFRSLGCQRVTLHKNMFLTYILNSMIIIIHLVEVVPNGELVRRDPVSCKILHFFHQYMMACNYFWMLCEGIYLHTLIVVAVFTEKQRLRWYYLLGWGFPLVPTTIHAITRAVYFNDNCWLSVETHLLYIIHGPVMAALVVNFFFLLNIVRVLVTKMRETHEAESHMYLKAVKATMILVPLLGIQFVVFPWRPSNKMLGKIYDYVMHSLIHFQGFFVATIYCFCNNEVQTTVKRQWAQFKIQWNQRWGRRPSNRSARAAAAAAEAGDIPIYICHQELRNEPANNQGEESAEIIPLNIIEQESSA
- T1 sequence (looked up) 2: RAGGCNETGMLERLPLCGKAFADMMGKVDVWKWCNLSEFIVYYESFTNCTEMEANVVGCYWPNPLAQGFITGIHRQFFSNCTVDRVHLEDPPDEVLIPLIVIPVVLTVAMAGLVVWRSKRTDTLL
- assay overview: cell-based or functional assay
Starred links: 1 amine or outer side, 2 acyl side, 3 side chain; linkers in the order of their positions; H or OH if unused. Positions of bridges follow the written chain, without caps; N, C: chain ends. Non-standard residues stand in square brackets, D forms with d. Groups on a side chain read outwards from the residue. Primed or numbered codes have the meaning given here. No end group written: not given here. *: point of attachment. dpeg″ = —[CO(CH2)O(CH2)2O(CH2)NH]— spacer unit, O=C(COCCOCN[*:1])[*:2]; C20 diacid = O=C(O)CCCCCCCCCCCCCCCCCCC(=O)*; C18 diacid = O=C(O)CCCCCCCCCCCCCCCCC(=O)*; γGlu = O=C(O)[C@H](CCC(=O)[*:2])N[*:1]
reported endpoint: pEC50 (cAMP accumulation), 0% HSA (pEC50)
Quick reminder: number only, in pEC50, skip the unit.

binder: KCNTATCATQRLANFLVHSSNNFGPILPPTNVGSNTY-NH2 (disulfide 2-7; ends not checked) [Pramlintide]
units of measure: pEC50
pEC50 (cAMP accumulation), 0% HSA: 12.5
--
binder: K([γGlu-γGlu-dpeg″-dpeg″-γGlu-C20 diacid])CNTSTCATQRLANELHKSSNNFGPILPPTKVGSETY-NH2 (disulfide 2-7) [Compound A112]
units of measure: pEC50
pEC50 (cAMP accumulation), 0% HSA: 11.6
--
binder: K([dpeg″-dpeg″-γGlu-C18 diacid])CNTSTCATQRLANELHKSSNNFGPILPPTKVGSETY-NH2 (disulfide 2-7) [Compound A113]
units of measure: pEC50
pEC50 (cAMP accumulation), 0% HSA: 12.3
--
binder: SCNTSTCATQRLANEKHKSSNNFGPILPPTKVGSETY (L-Lys 16 acylated: K*(γGlu-dpeg-dpeg-(γGlu)4-CO(CH2)14CH3); disulfide bridge Cys2-Cys7; C-terminal amide) [Compound A5]
units of measure: pEC50
pEC50 (cAMP accumulation), 0% HSA: 12.3

Next binder, pEC50 (cAMP accumulation), 0% HSA to be filled in.
pEC50 (cAMP accumulation), 0% HSA recorded for this binder, SCNTSTCATQRLAN[dK]([γGlu-γGlu-dpeg″-γGlu-C20 diacid])LHKSSNNFGPILPPTKVGSETY-NH2 (disulfide 2-7) [Compound A100] , is 11.1
